assay: reduction of polyQ htt aggregates in cells – imaging, exon1htt(103Q)mCFP cells, high-content imaging, primary screen (AID 483); details: exon1htt(103Q)mCFP cell line, aggregate imaging, at 2 µM; stronger effect = higher value;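 note: compound exposure lasted 3 days before fixation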
Endpoint label: inhibition of aggregation (%)
Output spec: scalar in %, unitless text.

Prompt: What value of measured inhibition of aggregation is listed for COc1ccccc1C(=O)Nc1nc2ccc(S(C)(=O)=O)cc2s1 ?
Response: -0.8

Prompt: What value of measured inhibition of aggregation is listed for CCc1ccccc1N1C(=O)C2CC(C)=C(C)CC2C1=O (centres undefined) ?
Response: 18.2

Prompt: What value of measured inhibition of aggregation is listed for Cc1cc(C)nc(SCc2ccc3nonc3c2)n1 ?
Response: -20.5

Prompt: What value of measured inhibition of aggregation is listed for O=c1cc(C(F)F)oc2c1ccc1ccccc12 ?
Response: 14.2

Prompt: What value of measured inhibition of aggregation is listed for CN1CCN(C(=O)C2(NC(=O)Nc3cccc(F)c3)CCCCC2)CC1 ?
Response: -14.5

Prompt: What value of measured inhibition of aggregation is listed for Oc1ccc2[nH]cnc2c1CN1CCCCC1 ?
Response: 5.5

Prompt: What value of measured inhibition of aggregation is listed for Cc1nn(-c2ccccc2)c2[nH]c(C(F)(F)F)cc(=O)c12 ?
Response: 17.9

Prompt: What value of measured inhibition of aggregation is listed for COC(=O)C1=C(C)Nc2ncnn2C1c1ccc(C)o1 (centres undefined) ?
Response: -58.3

Prompt: What value of measured inhibition of aggregation is listed for O=C(Nc1ccc2c(c1)OCCO2)C1CCN(C(=O)c2ccc(F)cc2)CC1 ?
Response: -5.3

Prompt: What value of measured inhibition of aggregation is listed for COc1cc(C)c(Br)cc1S(=O)(=O)N1CCOCC1 ?
Response: 3.4

Prompt: What value of measured inhibition of aggregation is listed for COc1ccc(CNS(=O)(=O)c2ccc3oc(C(=O)O)c(C)c3c2)cc1 ?
Response: -6

Prompt: What value of measured inhibition of aggregation is listed for COC(=O)CN(Cc1ccco1)S(=O)(=O)c1ccccc1 ?
Response: -8.4

Prompt: What value of measured inhibition of aggregation is listed for c1ccc(CCc2nc(-c3cccnc3)no2)cc1 ?
Response: 5

Prompt: What value of measured inhibition of aggregation is listed for Cc1csc2nc(CSc3nc4ccccc4o3)c(Br)n12 ?
Response: -9.5

Prompt: What value of measured inhibition of aggregation is listed for COc1ccc(OC)c(C2=NOC(C(=O)Nc3cc(C)nn3-c3ccccc3)C2)c1 (centres undefined) ?
Response: -4.1

Prompt: What value of measured inhibition of aggregation is listed for COCCn1nnnc1C(c1ccc(OC)cc1)N1CCN(c2ccccc2F)CC1 (centres undefined) ?
Response: -4.8

Prompt: What value of measured inhibition of aggregation is listed for CSc1ccccc1NC(=O)CN(c1ccccc1)S(=O)(=O)N(C)C ?
Response: 1.4

Prompt: What value of measured inhibition of aggregation is listed for CCOC(=O)c1cnc(-n2nc(C)cc2C)nc1Nc1ccc(N(C)C)cc1 ?
Response: 30.6

Prompt: What value of measured inhibition of aggregation is listed for CC1Cc2ccccc2N1C(=O)c1cnsn1 (centres undefined) ?
Response: -10.5

Prompt: What value of measured inhibition of aggregation is listed for CC(C)=CC(=O)OCC(=O)NC(=O)NC(C)(C)C ?
Response: 14.1

Prompt: What value of measured inhibition of aggregation is listed for COC(=O)C1=C(C)NC(C)=C(C(=O)OC)C1c1cc2cc(C)ccc2[nH]c1=O ?
Response: -7.7

Prompt: What value of measured inhibition of aggregation is listed for O=C(CCCn1c(=S)[nH]c2cc3c(cc2c1=O)OCO3)N1CCN(c2ccccc2F)CC1 ?
Response: -7.6

Prompt: What value of measured inhibition of aggregation is listed for CCn1nnnc1SCC(=O)N1CCOCC1 ?
Response: -2

Prompt: What value of measured inhibition of aggregation is listed for Cc1cccn2c(=O)c3cc(C#N)c(=NC(=O)c4cccnc4)n(CC4CCCO4)c3nc12 (centres undefined) ?
Response: -7.5

* * *

test: endothelial E-selectin expression blockers – imaging, HUVEC, immunofluorescence, MLSMR starter and 10KST1 sets, primary screen (AID 487); settings: HUVEC TNFalpha-induced E-selectin immunofluorescence imaging, at 2 µM; measured here: cell number, toxicity;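 note: 100% = median nuclei count of all wells on the same plate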
Endpoint label: nuclei count (%)
Output spec: scalar in %, unitless text.

Prompt: What value of measured nuclei count is listed for COCc1nnc(NS(=O)(=O)c2ccc(Br)cc2)s1 ?
Response: 90.2

Prompt: What value of measured nuclei count is listed for c1ccc(-c2nc3cnccn3c2Nc2ccc3c(c2)OCCO3)cc1 ?
Response: 110

Prompt: What value of measured nuclei count is listed for CC(=O)C1=C(N2CCCCC2)CCC1=O ?
Response: 109

Prompt: What value of measured nuclei count is listed for CC(C)COC(=O)C1[C@H]2C(=O)N(Cc3cccs3)C[C@]23C=C[C@H]1O3 (stereo partly specified) ?
Response: 127

Prompt: What value of measured nuclei count is listed for CC(C(=O)N1CCCCC1)n1sc2ccccc2c1=O (stereo unspecified) ?
Response: 109

Prompt: What value of measured nuclei count is listed for C[C@H](NC(=O)OC(C)(C)C)C(=O)NCC1CCC(C(=O)O)CC1 (stereo partly specified) ?
Response: 101

Prompt: What value of measured nuclei count is listed for CCC(C)NC(=O)c1cc(-c2ccc(OC)cc2)on1 (stereo unspecified) ?
Response: 108

Prompt: What value of measured nuclei count is listed for CC(=O)Nc1cccc(NC(=O)CSc2nnnn2C)c1 ?
Response: 131

Prompt: What value of measured nuclei count is listed for COc1ccc(Cl)cc1NC(=O)CSc1nncn1-c1cccnc1 ?
Response: 93.1

Prompt: What value of measured nuclei count is listed for CCCOc1ccc(C2C(C(=O)c3ccc(C)o3)=C(O)C(=O)N2Cc2cccnc2)cc1 (stereo unspecified) ?
Response: 107

Prompt: What value of measured nuclei count is listed for COc1ccccc1-c1nc(C#N)c(N2CCN(c3ccccc3)CC2)o1 ?
Response: 93.4

* * *

For each entry below, report its fluorescence slope value.
target: Voltage-gated potassium channel subunit beta-2 (Rattus norvegicus); assay: inhibitors of rat Kvbeta2 reductase activity – biochemical, NADPH fluorescence, primary screen (AID 622); details: recombinant KvBeta, 4-cyanobenzaldehyde reduction, at 10 µM, stronger effect = higher value;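 note: slope of raw intensity against log time taken from 70 to 1610 s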
Enter a number only.

Prompt: Test system Voltage-gated potassium channel subunit beta-2 (Rattus norvegicus); read-out fluorescence slope; what value for CCOc1cccc(-c2nnc3n2N=C(c2cc(OC)ccc2OC)CS3)c1 ?
Response: -0.376

Prompt: Test system Voltage-gated potassium channel subunit beta-2 (Rattus norvegicus); read-out fluorescence slope; what value for CC(=O)Nc1ccc(OC(=O)c2cccnc2)cc1 ?
Response: -0.318

Prompt: Test system Voltage-gated potassium channel subunit beta-2 (Rattus norvegicus); read-out fluorescence slope; what value for COc1ccc(CCNC(=O)C2CCCN(c3nn4c(=O)cc(C)nc4s3)C2)cc1OC (stereo not given) ?
Response: -0.403

Prompt: Test system Voltage-gated potassium channel subunit beta-2 (Rattus norvegicus); read-out fluorescence slope; what value for O=C(NCc1ccc2c(c1)OCO2)C1CCCN(S(=O)(=O)c2cccc3cccnc23)C1 (stereo not given) ?
Response: -0.527

Prompt: Test system Voltage-gated potassium channel subunit beta-2 (Rattus norvegicus); read-out fluorescence slope; what value for O=C(CSc1nnc(-c2ccccc2)o1)N1CCc2ccccc2C1 ?
Response: -0.382

Prompt: Test system Voltage-gated potassium channel subunit beta-2 (Rattus norvegicus); read-out fluorescence slope; what value for CCOC(=O)N1CCN(Cc2cc(=O)oc3ccc4ccccc4c23)CC1 ?
Response: -0.408

Prompt: Test system Voltage-gated potassium channel subunit beta-2 (Rattus norvegicus); read-out fluorescence slope; what value for Cc1ccc(S(=O)(=O)N2CCCN(S(=O)(=O)C3CCS(=O)(=O)C3)CC2)cc1 (stereo not given) ?
Response: -0.366

Prompt: Test system Voltage-gated potassium channel subunit beta-2 (Rattus norvegicus); read-out fluorescence slope; what value for CC(C(=O)OCn1nnc2ccccc2c1=O)N1C(=O)c2ccccc2C1=O (stereo not given) ?
Response: -0.62

Prompt: Test system Voltage-gated potassium channel subunit beta-2 (Rattus norvegicus); read-out fluorescence slope; what value for O=C(Nc1ccc2c(c1)OCO2)C(c1ccccc1)N1CCC2(CC1)OCCO2 (stereo not given) ?
Response: -0.51

Prompt: Test system Voltage-gated potassium channel subunit beta-2 (Rattus norvegicus); read-out fluorescence slope; what value for CCOC(=O)c1ccc(NS(=O)C23CC4CC(CC(C4)C2)C3)cc1 (stereo not given) ?
Response: -0.458

Prompt: Test system Voltage-gated potassium channel subunit beta-2 (Rattus norvegicus); read-out fluorescence slope; what value for COc1cc(NC(=O)Nc2cccc(C(C)=O)c2)cc(OC)c1OC ?
Response: -0.438

Prompt: Test system Voltage-gated potassium channel subunit beta-2 (Rattus norvegicus); read-out fluorescence slope; what value for O=C(NC1CCCC1)C(NS(=O)(=O)c1cccc2nsnc12)c1ccccc1 (stereo not given) ?
Response: -0.329

Prompt: Test system Voltage-gated potassium channel subunit beta-2 (Rattus norvegicus); read-out fluorescence slope; what value for Cc1cc2ncc(-c3ccc(Cl)cc3)c(N)n2n1 ?
Response: -0.583

Prompt: Test system Voltage-gated potassium channel subunit beta-2 (Rattus norvegicus); read-out fluorescence slope; what value for O=C(O)COc1ccc(Oc2ccccc2)cc1 ?
Response: -0.567

Prompt: Test system Voltage-gated potassium channel subunit beta-2 (Rattus norvegicus); read-out fluorescence slope; what value for CC(C)Sc1nc2c(c(=O)n1-c1ccc(F)cc1)SCC2 ?
Response: -0.519

Prompt: Test system Voltage-gated potassium channel subunit beta-2 (Rattus norvegicus); read-out fluorescence slope; what value for Cc1ccccc1OCc1nc2ccccc2c(=O)n1/N=C/c1ccco1 ?
Response: -0.46

Prompt: Test system Voltage-gated potassium channel subunit beta-2 (Rattus norvegicus); read-out fluorescence slope; what value for COC(=O)[C@H](CCSC)NC(=O)Nc1cc(C)ccc1C ?
Response: -0.616

Prompt: Test system Voltage-gated potassium channel subunit beta-2 (Rattus norvegicus); read-out fluorescence slope; what value for Cc1ccccc1C(=O)NC1CCN(Cc2nnnn2Cc2ccccc2)CC1 ?
Response: -0.585

Prompt: Test system Voltage-gated potassium channel subunit beta-2 (Rattus norvegicus); read-out fluorescence slope; what value for O=C(CNS(=O)(=O)c1ccccc1)NCc1ccccn1 ?
Response: -0.517

Prompt: Test system Voltage-gated potassium channel subunit beta-2 (Rattus norvegicus); read-out fluorescence slope; what value for Cc1cc(C)cc(NS(=O)(=O)c2ccc3[nH]c(=O)[nH]c3c2)c1 ?
Response: -0.392

Prompt: Test system Voltage-gated potassium channel subunit beta-2 (Rattus norvegicus); read-out fluorescence slope; what value for CN1C(=S)SC(C)(NO)C1(C)C (stereo not given) ?
Response: -0.479

Prompt: Test system Voltage-gated potassium channel subunit beta-2 (Rattus norvegicus); read-out fluorescence slope; what value for C=CS(=O)(=O)c1ccc(Oc2ccc(S(=O)(=O)C=C)cc2)cc1 ?
Response: -0.5

Prompt: Test system Voltage-gated potassium channel subunit beta-2 (Rattus norvegicus); read-out fluorescence slope; what value for CN(C)c1cccc(C(=O)OCC(=O)NCc2ccco2)c1 ?
Response: -0.603

Prompt: Test system Voltage-gated potassium channel subunit beta-2 (Rattus norvegicus); read-out fluorescence slope; what value for CN1CC(=O)N(CC(=O)NCCc2ccc(F)cc2)c2ccccc2C1=O ?
Response: -0.602

Prompt: Test system Voltage-gated potassium channel subunit beta-2 (Rattus norvegicus); read-out fluorescence slope; what value for CC(=O)c1cc2c(=O)c3cc(C)ccc3oc2nc1C ?
Response: -0.346
